Molecular target: T1, FBXL12, Q9NXK8
T1 chain: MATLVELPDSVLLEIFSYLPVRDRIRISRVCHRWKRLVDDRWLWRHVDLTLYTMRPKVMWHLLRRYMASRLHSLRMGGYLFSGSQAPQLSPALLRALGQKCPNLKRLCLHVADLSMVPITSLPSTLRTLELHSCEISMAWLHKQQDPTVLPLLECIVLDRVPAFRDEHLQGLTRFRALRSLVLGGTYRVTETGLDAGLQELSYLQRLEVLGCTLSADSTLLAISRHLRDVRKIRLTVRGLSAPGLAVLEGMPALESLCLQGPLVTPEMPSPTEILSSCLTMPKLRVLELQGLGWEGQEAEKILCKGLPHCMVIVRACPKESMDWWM
Test: median log2 fold change of GCK-ALFA target abundance (FLAG IP / Myc IP barcode read proportion) (log2 ratio); each designed protein is fused to an ALFA-tag nanobody in HEK293 cells to bring the named protein to FLAG-tagged glucokinase (GCK); Myc marks an untargeted standard; higher = target protein stabilised (more abundant)
Conditions: target protein: 3xFLAG-MCP-GCK-ALFA reporter; HEK293 landing pad (RPLP)
property-name: median log2 fold change
I'd appreciate a reply containing only the number, no unit.

// query # median log2 fold change lookup, item FBXL12_hotspot_186_38 (protein) MELRIRFSPTMSVEQMRAGAQIAVDILRELARRGRWEDLVEAARSLLESLRAARARIRDPEFAEVAAEALERVAAILEEAAKRHPDDEAIHAALEEVKAA
// result -0.00819

// query Using the record for FBXL12_hotspot_9_123 (protein) MIVVIRENVKREEDIEPALRRAVAYAEAAAEAGWRVILVFSASSEELKEKAKEILETKLGERVARLKARGARIVVTATEEEAERKKRELLEEALREEDEA , report its median log2 fold change.
// result -0.0307

// query Need median log2 fold change of FBXL12_hotspot_186_32 (protein) MELRVSLSASMSVEQMRANAEIAVAIVEGLAERGLWEDLDAAARSLAASLRAAVERLQRPEAAAVAAEALERLAEIVARALEEHPENERLAATLAEIRAA , thanks.
// result 0.127

// query Dear colleague, I am looking for the recorded median log2 fold change of the following binder: FBXL12_hotspot_69_87 (protein) EFTVIVRDVSVEYALALAEAALERAEEALAAGDREAFLRLARVALAAIENILEEDPERALELAERLAELLERADDPRFEPLLERARELIERARRLLEERR
// result -0.369

// query Given the binder FBXL12_hotspot_147_14 (protein) MKVTIRVVLEEGSETTVEMAIELAKGLHEAGVEEIRVEVEARDPEVALAAAERLAVEIGRGADVAEIRAFDRETGELLRRLDREEIRRIRAAAEEAEAAA , what is its reported median log2 fold change?
// result 0.119

// query Param item = FBXL12_hotspot_134_9 (protein) RTVVVIVSANGVSDAQARAAVDRAETIIAGLRAAGHRVLFVLVLSLADAAVGDALVARARAAAAAHGAEVVAAENVPAADFEAVLAAARARALARLDELE ; retrieve measured median log2 fold change.
// result 0.11

// query Any idea what its median log2 fold change is? The binder is FBXL12_hotspot_78_95 (protein) MRVLRIVIPADLPPDPEQRQRGIEYQAQAAIEAVRAGWEVVIEAADTPEAKRAALEILRRTLAETGDPERIRSPEGENAREILARLEAELAAEEAAAAAA
// result -0.49

// query Look up median log2 fold change: FBXL12_hotspot_9_125 (protein) RHVIISVTARTEEELREKIDRALDYAEAAAAAGWKVHLIVSGLSPELLAAAKELLATEHAERVAALKAAGAEIHLKETVEEGEALKAEILAEIEEEAERE
// result 0.23

// query Entry FBXL12_hotspot_23_47 (protein) MRTLVLSTFGTAPEDREASLEYAARLIVAAGRHGWRVVVVLEDRSSLELAATIAAMAKLVVGAEVVVKTDAEEELRELMERNRERAAELVAAAEAALAAE has what median log2 fold change?
// result -0.0403

// query Returns the measured median log2 fold change for the input binder. Input: FBXL12_hotspot_141_11 (protein) KGLLIVIMTSSIPEEKREEIKKHAEEAAKKAGIELIFEVAENEEEAEKIKEELLKEAEEKGYDVIGVLTVTDPNMDVERVKAYVEALVEWIKAKLEQLKA
// result 0.126

// query Query (binder): FBXL12_hotspot_23_48 (protein) MRTLVLSTRGVAPEDREAAARYAAEMIVAAGRAGWRVRVVLQDRESLELAALIAAMARLVTGAEVVVLTDAAEELERLMEERREEARRLVEEARARLDAE ; field requested: median log2 fold change
// result -0.469

// query Need median log2 fold change of FBXL12_hotspot_16_21 (protein) KIMIIKVVAPTEEAARSGIETATKIAKGLMEAGVDAIILLAVAEEEALLPFLEELVEKHKEELEEAAKKYGAKLKVIVGTRADLAALEAEAEAIAAELEA , thanks.
// result -0.165

// query Look up median log2 fold change for this binder: FBXL12_hotspot_186_36 (protein) MELRVRFGPDDSVEQMRAGVDIAVAIVEGLAEAGRLEDFVEAARSLLDSLEANAARIKDPAHRAVFAEAVARLLEIAERVAKAYPENEDIKEVAERLKAA
// result 0.111

// query What value of measured median log2 fold change is listed for FBXL12_hotspot_16_24 (protein) PVRILVIRQASTQRTPEGVAYQREAAVAAARAGMDAVILVGLAEREEDVPEMEALVADFEAAVRAANPDIIVEGAVARTEEEAEALKAALLARVEARLAA ?
// result 0.171

// query Would you mind telling me what median log2 fold change value was observed for FBXL12_hotspot_59_84 (protein) MRKVVIRGPPEQALANALALLRAAVELLKEHAGSELAPRILEFFLSTLKEAVRAAIALGDEEALEEIERLVEEAQEAVDEEDARRLREALERAREEAEAA ?
// result -0.544

// query Look at this binder and give its reported median log2 fold change. FBXL12_hotspot_9_119 (protein) KVLVIYERIENPEDVEPAIERAIEYARAAAEAGWKVIVVFSAANPEIAEHTRRLLETRFGEEVAELEARGARIVVRDNEEEAEETKERLLREALEEEDRE
// result 0.0418

// query Please give the measured median log2 fold change for this binder: FBXL12_hotspot_69_90 (protein) MIEVKASKESVDYVAELMKSALELAKKYLKEGDYENLLKAAEILIGAARAIKEYKPEEAAKLLEELIKVLKEAGTPEAKELAKEAEKVLEEIKKIIKERE
// result -0.0708

The values you see were collected from the supplement of paper PMC12632987.
